# study.target: PtpB from Mtb (Mycobacterium tuberculosis)
# Construct: made in house
# Sequence (P96830 1-276): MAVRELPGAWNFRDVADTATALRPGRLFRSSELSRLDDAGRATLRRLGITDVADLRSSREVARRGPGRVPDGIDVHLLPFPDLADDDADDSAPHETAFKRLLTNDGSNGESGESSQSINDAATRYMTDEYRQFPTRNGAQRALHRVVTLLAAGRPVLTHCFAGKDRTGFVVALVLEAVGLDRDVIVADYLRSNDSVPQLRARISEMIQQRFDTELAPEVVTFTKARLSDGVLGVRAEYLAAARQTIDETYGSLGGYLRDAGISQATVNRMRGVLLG
# assay.notes: biochemical
# Assay type: biochemical
# condition: pH 7
metric.name: IC50

1) O[C@@H]1OC[C@H](Cc2ccc3c(c2)OCO3)[C@H]1Cc1ccc2c(c1)OCO2 : > 100 µM

* * *

# study.target: PtpB (Mycobacterium tuberculosis, UniProt P96830)
# Construct: made in house
# Sequence (P96830 1-276): as above
# assay.notes: biochemical
metric.name: IC50 / Ki

1) COc1c(C)c(O)c2c(c1-c1c(OC)c(C)c(O)c3c1C(=O)c1cc(C)cc(O)c1C3=O)C(=O)c1cc(C)cc(O)c1C2=O [compound 6016, trachypone] : 1.7
2) CC(C)=CCC/C(C)=C/Cc1cc(CCC(=O)c2c(O)cc(O)c(CC=C(C)C)c2O)ccc1O [Ega1] : 0.9
3) CC(C)=CCc1c(C)c(CC=C(C)C)c2c(c1O)C(=O)c1c(O)cc(O)c(CC=C(C)C)c1C2 [PirIII] : 0.8
4) CC(C)=CCc1c(C)c(CC=C(C)C)c2c(c1O)C(=O)c1c(O)cc(O)c(CC=C(CO)CO)c1C2 [∆3] : 2.0
5) CC(C)=CCc1c(O)ccc(C(=O)[C@H]2[C@@H](c3c(O)cc(/C=C/c4ccc(O)cc4O)cc3O)C=C(C)C[C@@H]2c2ccc(O)cc2O)c1O [KuwE, Kuwanol E] : 1.2
6) COc1c(C)c(OC(C)=O)c2c(c1-c1c(OC)c(C)c(OC(C)=O)c3c1C(=O)c1cc(C)cc(OC(C)=O)c1C3=O)C(=O)c1cc(C)cc(OC(C)=O)c1C2=O [Ac3, tetra-acetyl-trachypone] : 1.9

Values compiled from paper PMC3796549.
